Source listed as ChEMBL document CHEMBL3508693.

- ASSAY: Tmax of aliskiren hemifumarate following 2 week oral dosing of aliskiren hemifumarate at 50 mg.Kg-1 level studied on day 1 in female Callithrix jacchus
- Assay type: ADME, organism-based
- DETAILS: marmoset, plasma
ATTRIBUTE_MEASURED: Tmax (h)
Report only the number, with the unit h understood.

In: Please indicate Tmax recorded for COCCCOc1cc(C[C@@H](C[C@H](N)[C@@H](O)C[C@H](C(=O)NCC(C)(C)C(N)=O)C(C)C)C(C)C)ccc1OC.COCCCOc1cc(C[C@@H](C[C@H](N)[C@@H](O)C[C@H](C(=O)NCC(C)(C)C(N)=O)C(C)C)C(C)C)ccc1OC.O=C(O)/C=C/C(=O)O [ALISKIREN FUMARATE]
Out: 1
